test system: IGROV-1; assay: NCI tumour cell line growth inhibition, 48 h
Activity calls are given as the source filed them. Cut-off read from the data, not from the text of the source: active = GI50 up to about 1.1 µM and inactive = higher.
Can you answer with just one of these options? active, inactive

Per the assay record, what outcome was assigned to COc1ccc(-c2cc(-c3ccco3)c(C#N)c(=S)n2C2OC(CO)C(O)C(O)C2O)cc1 (stereo not drawn) ?
inactive

Per the assay record, what outcome was assigned to CCC(CO)Nc1nc(NCc2ccccc2)c2ncn(C(C)C)c2n1 (stereo not drawn) [(RS)-ROSCOVITINE] ?
inactive

Per the assay record, what outcome was assigned to COc1cc2c3c(c1OC)C(=O)C(=O)C1=C3N(CCC1)CC2 ?
inactive

Per the assay record, what outcome was assigned to CC1CN(c2ccc(Cl)cc2)CC(C)OC(=O)O1 (stereo not drawn) ?
inactive

Per the assay record, what outcome was assigned to CC(=O)O[C@H]1CC[C@@]2(C)C(=CC[C@@H]3C2CC[C@]2(C)Nc4nc5ccccc5cc4CC32)C1 (stereo partly drawn) ?
inactive

Per the assay record, what outcome was assigned to CCC1=C(c2ccc(OC)cc2)CC[C@@]2(CCNC2=O)[C@@H]1C ?
inactive

Per the assay record, what outcome was assigned to Cc1nc2c(s/c(=N\N)n2-c2ccccc2)c(=O)n1C ?
inactive

Per the assay record, what outcome was assigned to SC1=NC2=C(CSC/C2=C\c2ccccc2)C(c2ccccc2)N1 (stereo not drawn) ?
inactive

Per the assay record, what outcome was assigned to CCN(CCCl)c1cc(CN(C)C)cc(NC(=O)C23CCC(C(=O)Nc4cc(CN(C)C)cc(N(CC)CCCl)c4)(CC2)CC3)c1 ?
inactive

Per the assay record, what outcome was assigned to COC1OC(COS(=O)(=O)c2ccc(C)cc2)C(O)C(OS(=O)(=O)c2ccc(C)cc2)C1OS(=O)(=O)c1ccc(C)cc1 (stereo not drawn) ?
inactive

Per the assay record, what outcome was assigned to COc1cc([C@@H]2c3cc4c(cc3[C@@H](NC(=O)NO)[C@H]3COC(=O)[C@H]23)OCO4)cc(OC)c1O ?
inactive

Per the assay record, what outcome was assigned to CC(=O)[O-].[O-]c1c(Cl)cc(Cl)cc1/C=N/Nc1ccccn1.[Zn+2] ?
inactive

Per the assay record, what outcome was assigned to CCC(C(=O)O)c1ccc(OC)cc1 (stereo not drawn) ?
inactive

Per the assay record, what outcome was assigned to COc1cc(NCc2ccc3nc(OC)c(OC)nc3c2)cc(OC)c1OC ?
inactive

Per the assay record, what outcome was assigned to CCOC(=O)c1ccc(-c2cccs2)n1C ?
inactive

* * *

system: Malme-3M; test: NCI tumour cell line growth inhibition, 48 h
Calls of active or inactive are those of the source. Cut-off read from the data, not from the text of the source: active = GI50 up to about 1.1 µM and inactive = higher.
Can you answer with just one of these options? True for active, False for inactive

These solved cases illustrate the format of a correct answer.
Per the assay record, what outcome was assigned to Cc1ccnc2sc3ccccc3c(=O)c12 ?
False

Per the assay record, what outcome was assigned to CCCOc1ccc2sc(NC(=O)c3cc([N+](=O)[O-])cc([N+](=O)[O-])c3)nc2c1 ?
False

***
Per the assay record, what outcome was assigned to COC(=O)CCC(C)[C@H]1CCC2C3C(C[C@H](OC(C)=O)[C@@]21C)[C@@]1(C)CCC2(C[C@H]1C[C@H]3OC(C)=O)OOC1(CCCCC1)OO2 (stereo partly specified) ?
False

Per the assay record, what outcome was assigned to O=C(CNc1ccccc1C(=O)O)Nn1cnc2ccc(S(=O)(=O)Nc3ccccc3C(=O)O)cc2c1=O ?
False

Per the assay record, what outcome was assigned to CC(C)C(C/C=C1\CC(CO)(COC(=O)C(C)(C)C)OC1=O)C(C)C (stereo unspecified) ?
False

Per the assay record, what outcome was assigned to COc1cc2nc3n(c(=O)c2cc1OC)-c1ccc([N+](=O)[O-])cc1C3=O ?
False

Per the assay record, what outcome was assigned to SC1=NC2=C(CSC/C2=C\c2ccccc2)C(c2ccccc2)N1 (stereo unspecified) ?
False

Per the assay record, what outcome was assigned to COc1ccc(C[C@H](N)C(=O)N2C[C@H](CO)C[C@H](n3ccc(=O)[nH]c3=O)C2)cc1 ?
False

* * *

test system: HL-60; assay: NCI tumour cell line growth inhibition, 48 h
Activity calls are given as the source filed them. Rule as the data show it: active = GI50 up to about 1.1 µM and inactive = higher. Residues, ends and D or L forms follow the SMILES beside them. *: point of attachment. X38 = O=C(c1ccc(-c2ccc(Cl)cc2Cl)o1)*
Can you answer with just one of these options? active, inactive

These solved cases illustrate the format of a correct answer.
Per the assay record, what outcome was assigned to CC(=O)c1csc2c1C(=O)c1ccccc1C2=O ?
active

Per the assay record, what outcome was assigned to COC(=O)C(CC(C)C)NC(=O)C(Cc1ccccc1)NC(=O)C1CCCN1C(=O)C(CO)NC(=O)c1ccc(-c2ccc(Cl)cc2Cl)o1 (centres undefined) (X38-SPFL-OMe; configuration not given here) ?
inactive

Per the assay record, what outcome was assigned to COc1cc2c3c(c1OC)/C(=N/OS(=O)(=O)c1ccc(C)cc1)CC3N(S(=O)(=O)c1ccc(C)cc1)CC2 (centres undefined) ?
inactive

Per the assay record, what outcome was assigned to C=C(CC)C[C@@H]1C[C@]2(C(=O)OC)c3[nH]c4ccccc4c3CCN2C1=O ?
inactive

Per the assay record, what outcome was assigned to O=C1CSC2(CC(/C=C/c3ccccc3O)=NN2c2cccc(S(=O)(=O)O)c2)N1c1nc2ccccc2s1 (centres undefined) ?
inactive

Per the assay record, what outcome was assigned to O/N=C1\C=Cc2nn(-c3ccccc3)nc2\C1=N/O ?
inactive

Per the assay record, what outcome was assigned to COc1cc2c3c(c1OC)C(=O)C(=O)C1=C3N(CCC1)CC2 ?
inactive

Per the assay record, what outcome was assigned to CC1=C(N2CC2)C(=O)c2nc3n(c2C1=O)CCC3OC(=O)CCl (centres undefined) ?
active

Per the assay record, what outcome was assigned to COc1cc([C@@H]2c3cc4c(cc3[C@@H](NC(=O)NO)[C@H]3COC(=O)[C@H]23)OCO4)cc(OC)c1O ?
inactive

Per the assay record, what outcome was assigned to CCNC(=O)C(O)C1(O)CCC2[C@@H]3CCC4=CC(=O)C=C[C@]4(C)C3[C@@H](O)C[C@@]21C (some centres undefined) ?
inactive

Okay, next one:
Per the assay record, what outcome was assigned to CN(C)CCCc1c2ccccc2nc2ccc(Cl)cc12 ?
inactive

* * *

system: NCI-H23; assay: NCI tumour cell line growth inhibition, 48 h
Active and inactive are the calls of the source. No stated cut-off is given here; in the data, active = GI50 up to about 1.1 µM and inactive = higher.
Recorded GI50, one value per entry.

For O=C(O)C1=CCCc2ccc3ccccc3c21 the molecule record lists GI50 as > 100 µM (inactive)

For C=C1C(=O)O[C@H]2C1C[C@@H](OC(C)=O)/C(C)=C/CC[C@@]1(C)O[C@H]21 (stereo partly drawn) the molecule record lists GI50 as 15.1 µM (inactive)

Note: attention shifts to another entry.
For Brc1ccc2c(c1)C1=C(CO2)Cc2ccccc2O1 the molecule record lists GI50 as 16.3 µM (inactive)

* * *

Recorded GI50, one value per entry.
test system: TK-10; assay: NCI tumour cell line growth inhibition, 48 h
The source made the active and inactive calls. No stated cut-off is given here; in the data, active = GI50 up to about 1.1 µM and inactive = higher.

Would you please look over these solved cases?
For CNS(=O)(=O)NNS(=O)(=O)c1ccccc1 the compound record lists GI50 as > 100 µM (inactive)

For Cc1nc2ccc(F)cc2c2c1CCN2c1ccc(Cl)cc1 the compound record lists GI50 as 9.4 µM (inactive)

For COc1ccc(/C(CCl)=C(\Nc2ccccc2)c2ccc(OC)c(OC)c2)cc1OC the compound record lists GI50 as > 100 µM (inactive)

For CCN(CC)/N=N/c1c(C(N)=O)n[nH]c1C the compound record lists GI50 as > 100 µM (inactive)

For CCOC(=O)NC(Nc1ccc(Cl)cn1)(C(F)(F)F)C(F)(F)F the compound record lists GI50 as > 100 µM (inactive)

***
For O=C(Cl)c1cc([N+](=O)[O-])cc([N+](=O)[O-])c1 the compound record lists GI50 as > 100 µM (inactive)

For CCOC(=O)N1CCc2cc(OC)c(OC)cc2/C1=C/c1ccc(OC)c(OC)c1 the compound record lists GI50 as > 100 µM (inactive)

For C=C(CO)[C@H]1Oc2ccc(C(C)=O)cc2[C@@H]1O the compound record lists GI50 as > 100 µM (inactive)

For Nn1c(CCCCCCCCc2nnc(COc3ccc(Cl)cc3Cl)n2N)nnc1COc1ccc(Cl)cc1Cl the compound record lists GI50 as 89.9 µM (inactive)

* * *

test system: ACHN; test: NCI tumour cell line growth inhibition, 48 h
Activity calls are given as the source filed them. No stated cut-off is given here; in the data, active = GI50 up to about 1.1 µM and inactive = higher.
observed property: GI50

Would you please look over these solved cases?
For COc1ccc(C2S/C(=C\c3ccc(OC)cc3OC)C(=O)N2NC(=O)Cc2ccccc2)cc1 (centres undefined) the compound record lists GI50 as > 100 µM (inactive)

For C[Si](C)(C)OC1CC(=O)OC1n1cc(F)c(=O)[nH]c1=O (centres undefined) the compound record lists GI50 as 11.7 µM (inactive)

For O=C(N/N=C\c1ccc([N+](=O)[O-])cc1)Nc1ccc2ccccc2c1 the compound record lists GI50 as 51.5 µM (inactive)

For CC(=O)C(=[N+]=[N-])C(=O)NCC#N the compound record lists GI50 as > 10 µM (inactive)

For CCOC(=O)N(Cc1cccs1)c1cc(OC)c(OC)c(OC)c1 the compound record lists GI50 as > 100 µM (inactive)

For O=C(O)C1=CCCc2ccc3ccccc3c21 the compound record lists GI50 as > 100 µM (inactive)

For CC(=O)O[C@H]1CC[C@@]2(C)C(=CC[C@@H]3C2CC[C@]2(C)Nc4nc5ccccc5cc4CC32)C1 (some centres undefined) the compound record lists GI50 as 4.72 µM (inactive)

For CCOC(=O)c1nc2ccccc2nc1NCc1cc(OC)c(OC)c(OC)c1 the compound record lists GI50 as 43.6 µM (inactive)

Note: attention shifts to another entry.
For N=C(N)SCc1ccc(Cl)c2ccccc12.O=[N+]([O-])c1c(O)c(Cl)cc(Cl)c1Cl the compound record lists GI50 as 12.5 µM (inactive)
